# credit: patent US5340814A

Experiment: Antihypertensive activity in anesthetized cats (blood pressure)
Assay type: in vivo, cat
Details: dose 1 mg/Kg, pentobarbital-anesthetized cats
Protocol: The pharmacological activities of the compounds of the present invention are described in the following experiment. In this experiment, the test compounds used are as follows. Adult cats of either sex, 2-3 Kg, anesthetized with pentobarbital sodium (30 mg/Kg i.p.) were used. […] Body temperature was maintained at 37.5° C. with a heating pad and monitored with a rectal thermometer. […] Heart rate was measured through a Grass Model 7B tachograph preamplifier triggered by the pulses of arterial blood pressure. […]
READOUT_TYPE: MBP (2 hr) (mmHg)
# unit: mmHg | format: bare number

>>> measured_value("COc1ccccc1N1CCN(CC2CN=C3c4ccccc4N=C(SC)N32)CC1 (stereo not shown)")
70
>>> measured_value("COc1ccccc1N1CCN(CC2CN=C3c4ccccc4NC(=O)N32)CC1 (stereo not shown)")
50
>>> measured_value("COC1=Nc2ccccc2C2=NCC(CN3CCN(c4ccccc4Cl)CC3)N12 (stereo not shown)")
23
>>> measured_value("COc1ccccc1N1CCN(CC2CN=C3c4ccccc4N(C)C(=O)N32)CC1 (stereo not shown)")
63
>>> measured_value("CN1C(=O)N2C(=NCC2CN2CCN(c3ccccc3Cl)CC2)c2ccccc21 (stereo not shown)")
50
>>> measured_value("CSC1=Nc2ccccc2C2=NCC(CN3CCN(c4ccccc4Cl)CC3)N12 (stereo not shown)")
30

What value of measured MBP (2 hr) is listed for O=C1Nc2ccccc2C2=NCC(CN3CCN(c4ccccc4Cl)CC3)N12 (stereo not shown) ?
35

----------
Target: α1-Adrenergic receptor
Assay: α1-Adrenergic receptor binding, [^3 H] prazosin, rat brain cortex membranes
Conditions: 0.2 nM [^3 H] prazocin, pH 7.4, 30 min, room temperature
Method: After the removal of nuclei by centrifugation at 1000×g for 10 min, P2 membranes were pelleted by centrifuging the supernatant at 22,000×g for 20 min. […] The amount of membrane protein used in each assay was in the range of 300-400 μg, as determined by the method of Lowry et al. The results are given in Table 2. […]
Documented Ki across a set of compounds

>>> measured_value("COc1cccc(N2CCN(CC3CN=C4c5ccccc5NC(=O)N43)CC2)c1 (centres unmarked) [Example 19]")
"5.76 nM"
>>> measured_value("COc1ccccc1N1CCN(CC2CN=C3c4ccccc4N(C)C(=O)N32)CC1 (centres unmarked) [Example 23]")
"0.36 nM"
>>> measured_value("CSC1=Nc2ccccc2C2=NCC(CN3CCN(c4ccccc4Cl)CC3)N12 (centres unmarked) [Example 9]")
"0.34 nM"

Param item = COC1=Nc2ccccc2C2=NCC(CN3CCN(c4ccccc4OC)CC3)N12 (centres unmarked) [Example 12] ; retrieve measured Ki.
0.07 nM

Quick check: Ki of COc1ccccc1N1CCN(CCn2c(=O)[nH]c3ccccc3c2=O)CC1.Cl [SGB-1534, reference compound] ?
0.25 nM

I would be grateful if you could share the reported Ki for COC1=Nc2ccccc2C2=NCC(CN3CCN(c4cccc(OC)c4)CC3)N12 (centres unmarked) [Example 14] .
> 100 nM

Value lookup for Ki; key = CSC1=Nc2ccccc2C2=NCC(CN3CCN(c4ccccc4)CC3)N12 (centres unmarked) [Example 5]
> 10 nM

What measured Ki goes with COc1cccc(N2CCN(CC3CN=C4c5ccccc5N=C(SC)N43)CC2)c1 (centres unmarked) [Example 7] ?
48.9 nM

Fill blank: measured Ki of the compound O=C1Nc2ccccc2C2=NCC(CN3CCN(c4ccccc4Cl)CC3)N12 (centres unmarked) [Example 21] is ____.
0.58 nM

Which measured Ki value corresponds to COc1ccccc1N1CCN(CC2CN=C3c4ccccc4NC(=O)N32)CC1 (centres unmarked) [Example 18] ?
0.45 nM

Request the reported Ki associated with COc1ccccc1N1CCN(CC2CN=C3c4ccccc4N=C(SC)N32)CC1 (centres unmarked) [Example 6]
0.54 nM

----------
Biological target: α2-adrenergic receptor (Rattus norvegicus, UniProt P22909)
Construct: from tissue; host or cells: rat brain cortex, P2 membranes
Sequence (P22909 1-465): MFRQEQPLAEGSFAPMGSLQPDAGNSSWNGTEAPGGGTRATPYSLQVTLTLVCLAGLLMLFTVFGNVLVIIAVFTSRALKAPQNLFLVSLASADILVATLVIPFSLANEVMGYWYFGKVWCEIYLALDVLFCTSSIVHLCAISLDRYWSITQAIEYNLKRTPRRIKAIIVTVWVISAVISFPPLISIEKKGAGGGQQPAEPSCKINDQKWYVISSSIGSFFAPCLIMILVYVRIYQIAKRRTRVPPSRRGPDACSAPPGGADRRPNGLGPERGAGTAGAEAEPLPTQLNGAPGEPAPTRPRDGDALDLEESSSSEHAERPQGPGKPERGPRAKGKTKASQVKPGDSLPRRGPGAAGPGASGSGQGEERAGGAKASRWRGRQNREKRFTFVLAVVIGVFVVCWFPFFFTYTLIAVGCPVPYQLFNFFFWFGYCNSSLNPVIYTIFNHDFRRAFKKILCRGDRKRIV
Assay: α2-Adrenergic receptor binding, [^3 H] clonidine, rat brain cortex membranes
Conditions: 1 nM [^3 H] clonidine, 10 mM MgCl2, pH 7.4, 30 min, room temperature
READOUT_TYPE: Ki (µM)
Just the number in µM, nothing appended.

Any idea what Ki was measured for COc1cccc(N2CCN(CC3CN=C4c5ccccc5N=C(SC)N43)CC2)c1 (stereo not shown) ?
8.36
